Molecular target: Melanocortin receptor 4 (Homo sapiens)
Sequence (P32245 whole entry): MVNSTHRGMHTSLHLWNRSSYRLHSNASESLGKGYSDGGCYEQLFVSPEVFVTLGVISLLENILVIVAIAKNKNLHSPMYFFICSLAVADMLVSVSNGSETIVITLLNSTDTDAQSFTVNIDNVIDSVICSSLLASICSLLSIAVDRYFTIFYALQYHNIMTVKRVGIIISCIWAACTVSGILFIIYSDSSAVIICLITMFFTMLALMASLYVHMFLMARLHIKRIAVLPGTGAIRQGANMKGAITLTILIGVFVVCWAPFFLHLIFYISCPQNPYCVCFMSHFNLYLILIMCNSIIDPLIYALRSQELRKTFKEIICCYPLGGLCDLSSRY
Assay: Agonistic activity against human Melanocortin 4 receptor
Hi! Just check whether EC50 is below 70 nM. Below gives Condition met, equal or above gives Condition not met.

>  <compound>
N=C(N)NCCC[C@H](NC(=O)C(Cc1ccccc1)NC(=O)[C@H](Cc1ccc(Cl)cc1)NC(=O)Cc1ccccc1)C(=O)N[C@@H](Cc1c[nH]c2ccccc12)C(N)=O (stereo in doubt)

>  <classification>
Condition met

$$$$
>  <compound>
N=C(N)NCCC[C@H](NC(=O)C(Cc1ccccc1)NC(=O)[C@H](Cc1ccc(Cl)cc1)NC(=O)CC(F)(F)F)C(=O)N[C@@H](Cc1c[nH]c2ccccc12)C(N)=O (stereo in doubt)

>  <classification>
Condition not met

$$$$
>  <compound>
N=C(N)NCCC[C@H](NC(=O)C(Cc1ccccc1)NC(=O)[C@H](Cc1ccc(Cl)cc1)NS(=O)(=O)C(F)(F)F)C(=O)N[C@@H](Cc1c[nH]c2ccccc12)C(N)=O (stereo in doubt)

>  <classification>
Condition not met

$$$$
>  <compound>
CN(C)C(=O)N[C@@H](Cc1ccc(Cl)cc1)C(=O)NC(Cc1ccccc1)C(=O)N[C@@H](CCCN=C(N)N)C(=O)N[C@@H](Cc1c[nH]c2ccccc12)C(N)=O (stereo in doubt)

>  <classification>
Condition met

$$$$
>  <compound>
N=C(N)NCCC[C@H](NC(=O)C(Cc1ccccc1)NC(=O)[C@H](Cc1ccc(Cl)cc1)NC(=O)CO)C(=O)N[C@@H](Cc1c[nH]c2ccccc12)C(N)=O (stereo in doubt)

>  <classification>
Condition not met

$$$$
>  <compound>
N=C(N)NCCC[C@H](NC(=O)C(Cc1ccccc1)NC(=O)[C@H](Cc1ccc(Cl)cc1)NC(=O)CCCc1ccccc1)C(=O)N[C@@H](Cc1c[nH]c2ccccc12)C(N)=O (stereo in doubt)

>  <classification>
Condition not met

$$$$
>  <compound>
N#CCC(=O)N[C@@H](Cc1ccc(Cl)cc1)C(=O)NC(Cc1ccccc1)C(=O)N[C@@H](CCCNC(=N)N)C(=O)N[C@@H](Cc1c[nH]c2ccccc12)C(N)=O (stereo in doubt)

>  <classification>
Condition met

$$$$
>  <compound>
CS(=O)(=O)N[C@@H](Cc1ccc(Cl)cc1)C(=O)NC(Cc1ccccc1)C(=O)N[C@@H](CCCN=C(N)N)C(=O)N[C@@H](Cc1c[nH]c2ccccc12)C(N)=O (stereo in doubt)

>  <classification>
Condition not met

$$$$
>  <compound>
N=C(N)NCCC[C@H](NC(=O)C(Cc1ccccc1)NC(=O)[C@H](Cc1ccc(Cl)cc1)NC(=O)c1c(F)c(F)c(F)c(F)c1F)C(=O)N[C@@H](Cc1c[nH]c2ccccc12)C(N)=O (stereo in doubt)

>  <classification>
Condition not met

$$$$
>  <compound>
C=CCC(=O)N[C@@H](Cc1ccc(Cl)cc1)C(=O)NC(Cc1ccccc1)C(=O)N[C@@H](CCCNC(=N)N)C(=O)N[C@@H](Cc1c[nH]c2ccccc12)C(N)=O (stereo in doubt)

>  <classification>
Condition met

$$$$
>  <compound>
COP(=O)(N[C@@H](Cc1ccc(Cl)cc1)C(=O)NC(Cc1ccccc1)C(=O)N[C@@H](CCCN=C(N)N)C(=O)N[C@@H](Cc1c[nH]c2ccccc12)C(N)=O)OC (stereo in doubt)

>  <classification>
Condition not met

$$$$
